Target: NADPH oxidase 2 (Homo sapiens) (UniProt P04839)
Sequence (P04839 whole entry, looked up): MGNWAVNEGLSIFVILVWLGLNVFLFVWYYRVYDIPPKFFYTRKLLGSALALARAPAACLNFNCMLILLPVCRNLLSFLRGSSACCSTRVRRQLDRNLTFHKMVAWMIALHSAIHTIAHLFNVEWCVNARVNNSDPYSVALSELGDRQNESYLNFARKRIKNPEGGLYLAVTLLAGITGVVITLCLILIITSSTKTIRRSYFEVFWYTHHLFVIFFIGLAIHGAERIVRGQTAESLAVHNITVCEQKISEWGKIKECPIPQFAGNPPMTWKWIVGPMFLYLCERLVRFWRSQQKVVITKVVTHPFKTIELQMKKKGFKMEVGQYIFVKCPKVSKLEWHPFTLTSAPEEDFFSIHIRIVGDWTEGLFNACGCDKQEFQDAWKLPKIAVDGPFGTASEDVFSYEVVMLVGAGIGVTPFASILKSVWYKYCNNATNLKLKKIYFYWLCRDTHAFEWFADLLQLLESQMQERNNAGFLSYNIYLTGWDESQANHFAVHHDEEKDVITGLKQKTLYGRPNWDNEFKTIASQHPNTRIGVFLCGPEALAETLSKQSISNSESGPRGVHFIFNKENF
Assay: NOX2-dependent H2O2 signal modulators, primary screen, NOX inhibitor project, cell-based, HEK293-NOX2, PMA-stimulated, Amplex Red fluorescence (AID 1159); further: test concentration not given here
Details: 45 min, higher = more signal, called active from +8 up or from −8 down
z-score: recorded values
property: z-score

• O=C1c2ccccc2[C@](Cc2ccccc2I)(C(=O)NCC(F)(F)F)[C@H](c2ccc(CO)cc2)N1Cc1ccccc1Cl = 2.69
• O[C@@H](Cc1ccccc1)[C@H]1C2C=CCCC=C2CN1Cc1cccc(Cl)c1 (some centres not stated) = -0.318
• O=C(c1ccccc1)N1Cc2ccccc2C[C@@]2(COC(c3ccc(OCCCO)cc3)=N2)C1=O = 0.137
• COc1cc(Br)cc(C(O)C2C=CC3C(=O)N(C)C(=O)C3N2N2CCCCC2)c1OC (configuration not stated) = 0.524
• C=CCN1C(=O)[C@]2(O[C@H](CCn3cc([C@H](O)c4ccccc4)nn3)[C@@H]([Si](C)(C)c3ccc(OC)cc3)[C@@H]2C)c2ccccc21 = 0.952
• COCCOC(=O)N1C(=O)[C@@]2(c3cc(C#CC4(O)CCCCCC4)ccc31)[C@H](c1ccccc1OCCO)N1[C@H](c3ccccc3)[C@H](c3ccccc3)OC(=O)[C@H]1[C@@H]2C(=O)N1CCN(c2ncccn2)CC1 = 0.342
• Cc1ccc(S[C@]2(C(=O)NC3CC3)CC(=O)N(Cc3ccccc3)[C@@H]2c2ccc(CO)cc2I)cc1 = 1.7

Origin of measurements: PubChem BioAssay
